Please respond with reported total protein half-life in vivo for every item in the list.
# test_method_notes: total protein half-life in vivo (active degradation + dilution); higher = more stable protein
# protocol_conditions: wild type E. coli NCM3722; growth: N-lim chemostat; doubling time 6 h
Give bare numbers, in h.

Completed entries (count: 3):
MSQLPGLSRETRESIAMYHLRVPQTEEELERYYQFRWEMLRKPLHQPKGSERDAWDAMAHHQMVVDEQGNLVAVGRLYINADNEASIRFMAVHPDVQDKGLGTLMAMTLESVARQEGVKRVTCSAREDAVEFFAKLGFVNQGEITTPTTTPIRHFLMIKPVATLDDILHRGDWCAQLQQAWYEHIPLSEKMGVRIQQYTGQKFITTMPETGNQNPHHTLFAGSLFSLATLTGWGLIWLMLRERHLGGTIILADAHIRYSKPISGKPHAVADLGALSGDLDRLARGRKARVQMQVEIFGDETPGAVFEGTYIVLPAKPFGPYEEGGNEEE [P0ADQ2]; 4.71
MHQVVCATTNPAKIQAILQAFHEIFGEGSCHIASVAVESGVPEQPFGSEETRAGARNRVANARRLLPEADFWVAIEAGIDGDSTFSWVVIENASQRGEARSATLPLPAVILEKVREGEALGPVMSRYTGIDEIGRKEGAIGVFTAGKLTRASVYHQAVILALSPFHNAVY; 3.92
MQENYKILVVDDDMRLRALLERYLTEQGFQVRSVANAEQMDRLLTRESFHLMVLDLMLPGEDGLSICRRLRSQSNPMPIIMVTAKGEEVDRIVGLEIGADDYIPKPFNPRELLARIRAVLRRQANELPGAPSQEEAVIAFGKFKLNLGTREMFREDEPMPLTSGEFAVLKALVSHPREPLSRDKLMNLARGREYSAMERSIDVQISRLRRMVEEDPAHPRYIQTVWGLGYVFVPDGSKA [P0AA16]; 4.67

Now turn to the next sequence.
The value of total protein half-life in vivo measured for the sequence MIKRVLVVSMVGLSLVGCVNNDTLSGDVYTASEAKQVQNVSYGTIVNVRPVQIQGGDDSNVIGAIGGAVLGGFLGNTVGGGTGRSLATAAGAVAGGVAGQGVQSAMNKTQGVELEIRKDDGNTIMVVQKQGNTRFSPGQRVVLASNGSQVTVSPR [P0A905] turned out to be 5.49
